Form field: isoTOP-ABPP ratio, lysine O43747_K214 (one value per entry).
# measured.target: AP1G1 AP-1 complex subunit gamma-1 (Homo sapiens, UniProt O43747)
# Construct: isoTOP-ABPP experiments performed in cell lysates (in vitro); endogenous in cells; host or cells: MDA-MB-231 soluble lysate
# Sequence (O43747 whole entry, one chain of several): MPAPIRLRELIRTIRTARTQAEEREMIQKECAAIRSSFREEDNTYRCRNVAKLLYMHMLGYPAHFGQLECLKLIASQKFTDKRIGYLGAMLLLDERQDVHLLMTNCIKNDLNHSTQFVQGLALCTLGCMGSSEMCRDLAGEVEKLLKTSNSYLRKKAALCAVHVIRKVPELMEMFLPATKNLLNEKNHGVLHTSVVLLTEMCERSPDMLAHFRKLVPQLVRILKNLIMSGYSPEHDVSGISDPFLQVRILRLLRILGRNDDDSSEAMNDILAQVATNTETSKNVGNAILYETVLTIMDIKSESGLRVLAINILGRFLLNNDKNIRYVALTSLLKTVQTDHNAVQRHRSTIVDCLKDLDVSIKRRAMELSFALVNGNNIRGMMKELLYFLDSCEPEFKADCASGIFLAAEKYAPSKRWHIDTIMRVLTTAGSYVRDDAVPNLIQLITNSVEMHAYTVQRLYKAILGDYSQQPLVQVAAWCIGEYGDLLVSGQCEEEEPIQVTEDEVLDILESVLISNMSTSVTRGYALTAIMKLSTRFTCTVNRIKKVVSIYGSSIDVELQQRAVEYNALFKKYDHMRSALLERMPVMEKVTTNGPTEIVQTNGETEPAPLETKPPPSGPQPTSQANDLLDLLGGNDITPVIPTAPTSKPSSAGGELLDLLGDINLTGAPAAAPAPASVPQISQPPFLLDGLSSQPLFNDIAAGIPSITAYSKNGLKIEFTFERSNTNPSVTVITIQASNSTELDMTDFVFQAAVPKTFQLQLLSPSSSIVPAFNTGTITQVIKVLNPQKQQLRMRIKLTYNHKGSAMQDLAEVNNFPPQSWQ
# protocol.text: competitive isoTOP-ABPP
# Type: binding
# measurement.setup: 50 uM_231_sol_in vitro
Field format: numeric only.

Study these solved cases before continuing.
N#Cc1ccc(C(=O)Oc2ccc([N+](=O)[O-])cc2[N+](=O)[O-])cc1 [fragment 44, 2,4-Dinitrophenyl 4-cyanobenzoate]; 0.9
O=C(ON1C(=O)CCC1=O)c1cc(C(F)(F)F)cc(C(F)(F)F)c1; 1.0
O=C(Oc1c(F)c(F)cc(F)c1F)c1cc(C(F)(F)F)cc(C(F)(F)F)c1; 0.8
O=C(Oc1c(F)c(F)c(C(F)(F)F)c(F)c1F)c1cc(C(F)(F)F)cc(C(F)(F)F)c1; 0.8
O=C(CCc1ccc2c(c1)OCO2)Oc1ccc([N+](=O)[O-])cc1[N+](=O)[O-]; 1.2

--- query ---
Query string: So what does the record say about isoTOP-ABPP ratio, lysine O43747_K214 for NC(=O)c1cc(C(F)(F)F)cc(C(F)(F)F)c1 [fragment 51, reference compound] ?
Result string: 0.9

Each recorded value in this set is attributed to patent US20210255193A1.
